tested on: HSV-1 strain F or KOS; assay: Inhibition of herpes simplex virus (HSV-1) replication in cell culture (BHK-21 cells, glycoprotein C ELISA); assay type: cell-based; conditions: Human alphaherpesvirus 1, BHK-21, Group 1 Table 1 entries
Listed here are compounds together with their documented pEC50.
Answer as the number alone; pEC50 is minus log10 of concentration in mol/L.

Example entries and their recorded answers appear below.
- smiles data: "Cc1cc(C(=O)N(CC(=O)Nc2ccc(-c3csc(N)n3)cc2)Cc2ccccc2)cc(C)n1"
  pEC50: 6.35
- smiles data: "Cc1cc(C)cc(CN(CC(=O)Nc2ccc(-c3csc(N)n3)cc2)C(=O)c2ccncc2)c1"
  pEC50: 8.00
- smiles data: "[N-]=[N+]=Nc1ccc(C(=O)N(CC(=O)Nc2ccc(-c3csc(N)n3)cc2)Cc2ccncc2)cc1"
  pEC50: 6.74
- smiles data: "Cc1cnccc1C(=O)N(CC(=O)Nc1ccc(-c2csc(N)n2)cc1)Cc1ccccc1"
  pEC50: 7.51
- smiles data: "Nc1nc(-c2ccc(NC(=O)CN(Cc3ccccc3)C(=O)c3ccccc3)cc2)cs1"
  pEC50: 8.15
- smiles data: "COc1ccc(CN(CC(=O)Nc2ccc(-c3csc(N)n3)cc2)C(=O)C2CCCCC2)cc1"
  pEC50: 7.03
- smiles data: "Nc1nc(-c2ccc(NC(=O)CNCCCc3ccccc3)cc2)cs1"
  pEC50: 4.74

Note: attention shifts to another entry.
-- ask Find the recorded pEC50 belonging to Cc1nc(C)c(C(=O)N(CC(=O)Nc2ccc(-c3csc(N)n3)cc2)Cc2ccccc2)s1 and report it.
-- reply 7.30

====

test system: HSV-1 strain F or KOS; test: Inhibition of herpes simplex virus (HSV-1) replication in cell culture (BHK-21 cells, glycoprotein C ELISA); format: cell-based; conditions: Human alphaherpesvirus 1, BHK-21, Group 1 Table 1 entries
log10 of EC50 values by entry
Quick note: numbers are log10 of EC50, with nM as the unit.

Answered examples (3):
- smiles data: "CC(C)(C)CC(=O)N(CC(=O)Nc1ccc(-c2csc(N)n2)cc1)Cc1ccccc1"
  log10 of EC50: 0.30
- smiles data: "Nc1nc(-c2ccc(NC(=O)CN(Cc3ccccc3)C(=O)C3CCCC3)cc2)cs1"
  log10 of EC50: 0.70
- smiles data: "CCCC(CCC)N(CC(=O)Nc1ccc(-c2csc(N)n2)cc1)C(=O)C1CCCCC1"
  log10 of EC50: 1.78

-- ask # get_value(readout='log10 of EC50', item= Nc1nc(-c2ccc(NC(=O)CN(Cc3ccc(F)cc3)C(=O)C3CCCCC3)cc2)cs1 )
-- reply 0.78

-- ask Again, but for Nc1nc(C(=O)N(CC(=O)Nc2ccc(-c3csc(N)n3)cc2)Cc2ccccc2)cs1
-- reply 1.96

-- ask Entry to check: Nc1nc(-c2ccc(NC(=O)CN(CC3CCCCC3)C(=O)c3ccccc3)cc2)cs1
-- reply 2.73

-- ask Field entry: Cc1nc(C(=O)N(CC(=O)Nc2ccc(-c3csc(N)n3)cc2)Cc2ccccc2)cs1
-- reply 2.56

-- ask Query Nc1nc(-c2ccc(NC(=O)CN(CCc3ccccn3)C(=O)C3CCCC3)cc2)cs1 next
-- reply 2.20

====

test system: HCMV (strain AD169); assay: Inhibition of HCMV replication, plaque reduction assay (PRA, Hs-68 cells); format: cell-based, Human Cytomegalovirus (HCMV); details: Human betaherpesvirus 5, AD169, Hs68, Group 1 Table 2 entries, read-out: PRA CMV EC50
Listed compounds paired with reported EC50
Respond with the bare value in µM.

Worked set:
- compound: "Nc1nc(-c2ccc(NC(=O)CCN(Cc3ccccc3)C(=O)OCc3ccccc3)cc2)cs1 [Example 16]"
  unit: "µM"
  observed measurement: 8
- compound: "Nc1nc(-c2ccc(NC(=O)CCN(Cc3ccccc3)C(=O)c3ccccc3)cc2)cs1 [Example 3]"
  unit: "µM"
  observed measurement: 9.2
- compound: "CC(C)(C)OC(=O)N(CCC(=O)Nc1ccc(-c2csc(N)n2)cc1)CC1CCCCC1 [Example 21]"
  unit: "µM"
  observed measurement: 6.5
- compound: "CC(C)(C)OC(=O)N(CCC(=O)Nc1ccc(-c2csc(N)n2)cc1)Cc1ccccc1 [Example 15]"
  unit: "µM"
  observed measurement: 9
- compound: "Nc1nc(-c2ccc(NC(=O)CCNC3Cc4ccccc4C3)cc2)cs1 [Example 10]"
  unit: "µM"
  observed measurement: 14

-- ask Dear colleague, I am looking for the recorded EC50 of the following compound: Nc1nc(-c2ccc(NC(=O)CCN(Cc3ccccc3)Cc3ccccc3)cc2)cs1 [Example 2]
-- reply 4.7

-- ask Same again, this time with Nc1nc(-c2ccc(NC(=O)CCN(C(=O)c3cccnc3)C3Cc4ccccc4C3)cc2)cs1 [Example 12]
-- reply 8

-- ask Another compound: Nc1nc(-c2ccc(NC(=O)CCN(Cc3ccccc3)C(=O)c3cccnc3)cc2)cs1 [Example 6]
-- reply 22

====

tested on: HCMV (strain AD169); experiment: Inhibition of HCMV replication, plaque reduction assay (PRA, Hs-68 cells); type: cell-based, Human Cytomegalovirus (HCMV); conditions: Human betaherpesvirus 5, AD169, Hs68, Group 1 Table 2 entries, read-out: PRA CMV EC50
metric name: pEC50
A value of pEC50 is the negative decimal logarithm of a concentration given in moles per litre.

Consider the following illustrative entries.
- molecule: "C[C@@H](c1ccccc1)N(CCC(=O)Nc1ccc(-c2csc(N)n2)cc1)C(=O)OC(C)(C)C"
  metric name: "pEC50"
  observed measurement: 5.48
- molecule: "CC(C)(C)OC(=O)N(CCC(=O)Nc1ccc(-c2csc(N)n2)cc1)C1CCc2ccccc21 (stereo not shown)"
  metric name: "pEC50"
  observed measurement: 5.05
- molecule: "Nc1nc(-c2ccc(NC(=O)CCN(Cc3ccccc3)Cc3ccccc3O)cc2)cs1"
  metric name: "pEC50"
  observed measurement: 4.89

-- ask Give HCMV (strain AD169) pEC50 for Nc1nc(-c2ccc(NC(=O)CCN(C(=O)c3cccnc3)C3CCc4ccccc43)cc2)cs1 (stereo not shown)
-- reply 4.70

====

Experiment: Inhibition of HCMV replication, ELISA assay (Hs-68 cells)
Type: cell-based, Human Cytomegalovirus (HCMV)
Settings: human, Group 1 Table 5 entries, read-out: Cytotoxic at this concentration (footnote *, ELISA CMV column)
Procedure: C) Inhibition of Human Cytomegalovirus (HCMV) Replication The effect of compounds on the replication of HCMV has been measured by using an ELISA-based assay (ELISA) and a plaque reduction assay (PRA). […] The medium was removed from wells by aspiration. […] After 8 days of incubation at 37°, the extent of viral replication was determined by an ELISA assay which detects the late structural protein p28 of HCMV. […]
metric name: MCC at 192 h

-- ask What does the data say about its MCC at 192 h? Entry: Nc1nc(-c2ccc(NC(=O)[C@H](Cc3ccccc3)NC(=O)C3CCCCC3)cc2)cs1 [Example 1]
-- reply 14 µM

====

target: HSV-1 helicase-primase (Human herpesvirus 1, UniProt P10189+P10236); construct: made in house; host or cells: Sf21 insect cells triply infected with recombinant baculoviruses (UL5, UL8, UL52); assay: HSV-1 DNA-dependent ATPase assay (inhibition of HSV-1 helicase-primase); type: biochemical; details: Group 1 Table 1 entries
Sequence (P10192 whole entry): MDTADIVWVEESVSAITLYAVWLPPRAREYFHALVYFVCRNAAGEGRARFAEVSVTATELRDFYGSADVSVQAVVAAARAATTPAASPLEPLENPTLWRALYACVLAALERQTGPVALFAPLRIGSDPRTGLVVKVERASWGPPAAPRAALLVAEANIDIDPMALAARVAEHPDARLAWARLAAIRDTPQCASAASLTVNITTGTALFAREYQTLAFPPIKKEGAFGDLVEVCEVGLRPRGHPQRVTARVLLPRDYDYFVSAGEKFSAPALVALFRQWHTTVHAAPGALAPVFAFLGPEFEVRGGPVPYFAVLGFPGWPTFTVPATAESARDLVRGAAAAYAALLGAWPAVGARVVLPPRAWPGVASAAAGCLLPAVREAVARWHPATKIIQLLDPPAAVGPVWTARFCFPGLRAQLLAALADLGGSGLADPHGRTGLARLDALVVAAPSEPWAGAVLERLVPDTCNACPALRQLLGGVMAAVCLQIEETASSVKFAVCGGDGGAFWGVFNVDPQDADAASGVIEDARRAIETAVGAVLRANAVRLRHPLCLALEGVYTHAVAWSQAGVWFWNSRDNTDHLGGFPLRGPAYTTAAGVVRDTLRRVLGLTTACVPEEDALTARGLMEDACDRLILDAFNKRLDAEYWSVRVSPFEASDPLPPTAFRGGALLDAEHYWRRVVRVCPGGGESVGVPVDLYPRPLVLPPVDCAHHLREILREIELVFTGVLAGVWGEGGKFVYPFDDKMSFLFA
Sequence (P10236 whole entry): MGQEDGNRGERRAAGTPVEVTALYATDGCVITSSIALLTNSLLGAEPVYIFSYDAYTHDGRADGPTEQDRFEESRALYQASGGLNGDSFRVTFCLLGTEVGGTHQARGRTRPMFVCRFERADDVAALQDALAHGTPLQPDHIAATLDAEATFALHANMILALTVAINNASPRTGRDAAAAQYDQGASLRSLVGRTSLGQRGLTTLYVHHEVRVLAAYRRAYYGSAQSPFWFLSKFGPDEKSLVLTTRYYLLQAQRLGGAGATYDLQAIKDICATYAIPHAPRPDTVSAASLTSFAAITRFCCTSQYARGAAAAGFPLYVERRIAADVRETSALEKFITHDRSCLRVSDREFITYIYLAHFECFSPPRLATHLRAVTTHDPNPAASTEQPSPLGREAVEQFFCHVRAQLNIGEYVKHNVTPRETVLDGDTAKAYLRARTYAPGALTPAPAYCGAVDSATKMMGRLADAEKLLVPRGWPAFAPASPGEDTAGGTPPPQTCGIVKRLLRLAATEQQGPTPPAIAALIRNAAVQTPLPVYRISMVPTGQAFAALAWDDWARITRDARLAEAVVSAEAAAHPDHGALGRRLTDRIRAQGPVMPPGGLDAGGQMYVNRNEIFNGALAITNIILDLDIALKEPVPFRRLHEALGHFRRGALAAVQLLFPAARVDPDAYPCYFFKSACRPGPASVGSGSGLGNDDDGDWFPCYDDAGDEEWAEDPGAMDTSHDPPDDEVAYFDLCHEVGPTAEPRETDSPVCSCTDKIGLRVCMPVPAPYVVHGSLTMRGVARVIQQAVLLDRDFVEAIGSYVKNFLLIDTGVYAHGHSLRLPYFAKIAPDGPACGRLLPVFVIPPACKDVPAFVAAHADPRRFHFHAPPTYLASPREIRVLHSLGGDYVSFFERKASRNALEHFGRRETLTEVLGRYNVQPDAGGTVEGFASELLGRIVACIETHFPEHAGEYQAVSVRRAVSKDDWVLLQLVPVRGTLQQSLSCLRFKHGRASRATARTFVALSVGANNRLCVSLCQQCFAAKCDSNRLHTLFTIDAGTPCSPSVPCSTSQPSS
Sequence (P10189 whole entry): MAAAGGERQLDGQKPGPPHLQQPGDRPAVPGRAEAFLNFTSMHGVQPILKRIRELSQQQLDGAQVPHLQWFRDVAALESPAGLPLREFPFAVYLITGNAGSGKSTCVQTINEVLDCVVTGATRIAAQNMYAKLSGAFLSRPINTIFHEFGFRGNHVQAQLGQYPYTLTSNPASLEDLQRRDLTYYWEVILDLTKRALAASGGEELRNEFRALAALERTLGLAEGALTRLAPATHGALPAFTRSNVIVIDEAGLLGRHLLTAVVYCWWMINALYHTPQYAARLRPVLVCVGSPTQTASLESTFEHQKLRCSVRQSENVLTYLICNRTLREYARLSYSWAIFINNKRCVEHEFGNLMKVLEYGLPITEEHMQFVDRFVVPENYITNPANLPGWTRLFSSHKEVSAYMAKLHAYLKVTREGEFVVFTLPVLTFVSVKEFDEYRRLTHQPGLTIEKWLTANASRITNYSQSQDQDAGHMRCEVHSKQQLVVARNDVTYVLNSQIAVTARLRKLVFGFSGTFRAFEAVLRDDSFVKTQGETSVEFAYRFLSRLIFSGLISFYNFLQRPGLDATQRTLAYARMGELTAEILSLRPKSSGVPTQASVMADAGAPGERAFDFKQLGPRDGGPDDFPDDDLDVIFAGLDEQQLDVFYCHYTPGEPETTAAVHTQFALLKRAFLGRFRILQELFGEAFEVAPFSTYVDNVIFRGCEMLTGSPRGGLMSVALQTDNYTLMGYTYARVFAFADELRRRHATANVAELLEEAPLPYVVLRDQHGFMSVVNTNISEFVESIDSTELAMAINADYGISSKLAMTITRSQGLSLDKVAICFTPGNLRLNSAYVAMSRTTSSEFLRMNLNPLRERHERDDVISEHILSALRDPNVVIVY
metric name: log10 of IC50 (log10 of the value in nM)
Kindly note that the scale is log10 and the underlying IC50 is in nM.

// solved cases for log10 of IC50 follow
- smiles data: "Cc1cc(C)cc(CN(CC(=O)Nc2ccc(-c3csc(N)n3)cc2)C(=O)c2ccncc2)c1"
  target or system: "HSV-1 helicase-primase (Human herpesvirus 1, UniProt P10189+P10236)"
  log10 of IC50: 1.60
- smiles data: "Nc1nc(-c2ccc(NC(=O)CN(CCc3nccs3)C(=O)c3ccncc3)cc2)cs1"
  target or system: "HSV-1 helicase-primase (Human herpesvirus 1, UniProt P10189+P10236)"
  log10 of IC50: 3.38
- smiles data: "CC(C)(C)OC(=O)N(CCc1ccccn1)CC(=O)Nc1ccc(-c2csc(N)n2)cc1"
  target or system: "HSV-1 helicase-primase (Human herpesvirus 1, UniProt P10189+P10236)"
  log10 of IC50: 3.34

-- ask What measured log10 of IC50 is associated with CCCC(CCC)N(CC(=O)Nc1ccc(-c2csc(N)n2)cc1)C(=O)OC(C)(C)C on HSV-1 helicase-primase (Human herpesvirus 1, UniProt P10189+P10236)?
-- reply 2.57

-- ask What do we get for Nc1nc(-c2ccc(NC(=O)CNCc3ccccn3)cc2)cs1 ?
-- reply 3.90

====

system: HCMV (strain AD169); test: Inhibition of HCMV replication, plaque reduction assay (PRA, Hs-68 cells); format: cell-based, Human Cytomegalovirus (HCMV); settings: Human betaherpesvirus 5, AD169, Hs68, Group 1 Table 5 entries, read-out: PRA CMV EC50
metric name: EC50 (µM)
Give a bare numeral; the unit µM is implied.

-- ask Can you look up the measured EC50 of CN[C@@H](Cc1ccccc1)C(=O)Nc1ccc(-c2csc(N)n2)cc1 [Example 8] for me?
-- reply 33

All values here come from patent US6288091A.
